Tested on: C33A
test: Primary qHTS to identify gynecologic anti-cancer compounds using libraries of approved drugs and bioactive compounds (AID 1345084); further: nearly all actives have a fitted effect of over 55% in size
reported_conditions: Gynecologic cancer cell panel viability, ATPlite luminescence, 48 h; series mostly up to 57.5 µM
Results filed as inconclusive are left out. The source made the active and inactive calls. The call rests on the fitted dose curve; in most records, active means well fitted cell-killing curve with a large enough effect; inconclusive means small, poorly fitted or top-dose-only effect, or effect the other way; inactive means flat fitted curve, though single readings scatter.
In this exercise, the only acceptable responses are true (1) = active, false (0) = inactive

{"molecule": "COc1cc(F)c(F)c(Nc2ccc(I)cc2F)c1NS(=O)(=O)C1(CC(O)CO)CC1 (stereo not given)", "label_value": "false (0)"}
{"molecule": "COCCN(C(=O)c1cc(OC)c(OC)c(OC)c1)c1nc(-c2ccccc2)cs1", "label_value": "false (0)"}
{"molecule": "C=C(C)C1CC(O)C(C)C12CC(O)C1(C)OC1C2O (stereo not given)", "label_value": "true (1)"}
{"molecule": "O=C(CSc1nc2ccccc2c(=O)n1-c1ccccc1)Nc1ccc2c(c1)CCC2", "label_value": "false (0)"}

Turning now to a further record.
Write down the call the test reported for this molecule. Item: O=C(Nc1ccc(C(F)(F)F)cn1)N1CCN(c2ncccc2C(F)(F)F)CC1
false (0)
